Reported relative viability by item:
- System: HS729
- assay.overview: relative viability vs DMSO control (72 h) (fraction); higher = more viable cells
- condition.notes: 0.1235 µM

// below: answered molecules
[
  {
    "molecule": "C[C@]12O[C@H](C[C@]1(O)CO)n1c3ccccc3c3c4c(c5c6ccccc6n2c5c31)CNC4=O [Lestaurtinib]",
    "attribute.measured": "relative viability",
    "result": 0.757
  },
  {
    "molecule": "CCN(CC)CCNC(=O)c1c(C)[nH]c(/C=C2\\C(=O)Nc3ccc(F)cc32)c1C [Sunitinib]",
    "attribute.measured": "relative viability",
    "result": 0.731
  },
  {
    "molecule": "COC(=O)[C@@]1(O)C[C@H]2O[C@]1(C)n1c3ccccc3c3c4c(c5c6ccccc6n2c5c31)C(=O)NC4 [K-252a]",
    "attribute.measured": "relative viability",
    "result": 0.713
  }
]

Would you kindly share the measured relative viability for CC#CC(=O)N1CCC[C@H]1c1nc(-c2ccc(C(=O)Nc3ccccn3)cc2)c2c(N)nccn12 [Acalabrutinib] ? 0.894

---

- Test system: SW684
- assay.overview: relative viability vs DMSO control (72 h) (fraction); higher = more viable cells
- condition.notes: 0.3704 µM
Listed here are molecules together with their documented relative viability.
Please state the value as a number alone, without comment.

[
  {
    "molecule": "Cc1cc2c(F)c(Oc3ncnn4cc(OC[C@@H](C)O)c(C)c34)ccc2[nH]1 [Brivanib]",
    "quantitative.result": 1.15
  }
]

Name the recorded relative viability for CN1CC[C@@H](NC(=O)Nc2ccc(C#N)cc2)C[C@@H]1c1nc2ccccc2[nH]1 [Glasdegib] . 1.2

Fill in: relative viability of COc1cc(OC)c(/C=C/S(=O)(=O)Cc2ccc(OC)c(NCC(=O)O)c2)c(OC)c1 [Rigosertib] is ___ 0.73

---

// reported standardised AUC per item
- Tested on: SW684
- assay.overview: standardised AUC of viability dose-response curve (72 h) (fraction (0-1)); higher = less growth inhibition (more resistant)
Just the number, please.

Past entries and their recorded results:
[
  {
    "compound": "COc1cc(CCc2cc(NC(=O)c3ccc(N4CC(C)NC(C)C4)cc3)n[nH]2)cc(OC)c1 (centres undefined)",
    "standardised AUC": 0.965
  },
  {
    "compound": "Cc1cc2c(F)c(Oc3ncnn4cc(OC[C@@H](C)O)c(C)c34)ccc2[nH]1",
    "standardised AUC": 1
  },
  {
    "compound": "O=C(Nc1nc2cccc(-c3ccc(CN4CCS(=O)(=O)CC4)cc3)n2n1)C1CC1",
    "standardised AUC": 0.994
  }
]

Reported standardised AUC, compound `O=S(=O)(c1cccc2cnccc12)N1CCCNCC1` : ____ 0.978

---

- Tested on: SK-ES-1
- assay.overview: relative viability vs DMSO control (72 h) (fraction); higher = more viable cells
- condition.notes: 0.01372 µM
Criterion: relative viability strictly under 1. Met: yes (1). Not met: no (0).

For orientation, consider the following solved cases.
[
  {
    "compound.string": "Cn1cc(C2=C(c3cn(C4CCN(Cc5ccccn5)CC4)c4ccccc34)C(=O)NC2=O)c2ccccc21",
    "class.name": "no (0)"
  },
  {
    "compound.string": "CCN1C(=O)N(c2c(F)c(OC)cc(OC)c2F)Cc2cnc3[nH]c(CN4CCOCC4)cc3c21",
    "class.name": "yes (1)"
  }
]

Criterion: relative viability strictly below 1. Is it met by `CC(C)Oc1ccc(-c2nn([C@@H](C)c3oc4ccc(F)cc4c(=O)c3-c3cccc(F)c3)c3ncnc(N)c23)cc1F` ? no (0)

Report whether reported relative viability is lower than 1 (strictly) for `Clc1ccc(Nc2nnc(Cc3ccncc3)c3ccccc23)cc1` no (0)

Is it true that relative viability reported for `C[C@]12O[C@H](C[C@]1(O)CO)n1c3ccccc3c3c4c(c5c6ccccc6n2c5c31)CNC4=O` is less than 1? yes (1)
